# System: RXF 393 renal
# measurementDescription: NCI-60 one-dose screen, 48 h (100 = growth as untreated, 0 = no growth, -100 = all killed)
# conditionInfo: 10 µM unless noted
# Experimental: Cells are grown in 96 well plates and exposed to the test compound for 48 hours. Compounds are tested at a single concentration, which is 10^-5 M for most compounds. The reported endpoint is percent growth (GI% or GIPRCNT), where numbers from 0 - 100% represent growth inhibition, and numbers from -100% - 0 represent cell death. For example, a value of 40 represents 60% growth inhibition. A value of 0 means no net growth occurred over the course of the experiment. […]
Compounds without any hit were thinned out: in the full panel of roughly 83,000, 20% have a hit.
measurementKind: growth (%)
Use % as the unit, but write only the number.

Recorded results for 2 compounds are shown here.
O=[N+]([O-])c1ccc(N/N=C/c2ccccc2O)nc1 : 38.1
CC(=O)Nc1c(Br)cc2c(c1Br)Cc1cc(Br)ccc1-2 : 92

The compound identified as O=[N+]([O-])c1ccc(N/N=C\c2ccc(O)cc2O)nc1 registered its growth at 36.3

The compound identified as O=C(Nc1cccc(Cl)c1)Nc1ccccc1Cl registered its growth at 117

The compound identified as COC1(OC)C2(Cl)CCC1(Cl)C(Cl)=C2Cl registered its growth at 107

* * *

Measured growth, listed per entry.
# Test system: NCI-H522 lung
# measurementDescription: NCI-60 one-dose screen, 48 h (100 = growth as untreated, 0 = no growth, -100 = all killed)
# conditionInfo: 10 µM unless noted
Compounds without any hit were thinned out: in the full panel of roughly 83,000, 20% have a hit.
Use % as the unit, but write only the number.

Recorded results for 5 compounds are shown here.
CCCNCCC(C)=O : 99.6
CCOC(=O)C1C(=O)C=C(c2cc(OC)c(OC)c(OC)c2)CC1c1sc(N(C)Cc2ccccc2)nc1Cl (stereo not given) : 67
OC(COCc1ccccc1)COCc1ccccc1 : 100
O=C(Nc1ccc([N+](=O)[O-])cc1)c1cc2ccccc2cc1O : -31.5
CC(C)(c1ccccc1)c1cc(O)c(C(C)(C)c2ccccc2)cc1O : -2.05

The compound identified as CCOC(=O)C#Cc1c(C(=O)OCC)nnn1[C@@H]1O[C@H](COC(C)=O)[C@@H](OC(C)=O)[C@H]1OC(C)=O registered its growth at 50

The compound identified as CN(C)c1nc(-c2ccco2)n2nc(-c3ccc(Cl)cc3)cc2n1 registered its growth at 71.5

The compound identified as COc1ccc(C2=NNC(c3ccc(Oc4nc5c(c(=O)n(C)c(=O)n5C)n4C)c(OC)c3)C2)cc1 (stereo not given) registered its growth at 84.4

The compound identified as CN1C2CCC1/C(=C\c1ccc(Cl)cc1)C(=O)/C2=C/c1ccc(Cl)cc1 registered its growth at 54.7

The compound identified as NS(=O)(=O)c1ccc(CCn2c(SCC(=O)N/N=C/c3ccccc3O)nc3ccccc3c2=O)cc1 registered its growth at 8.06

The compound identified as O=C(NCCN1CCCC1)n1cc(-c2ccncc2)c(-c2cc(O)cc(Cl)c2)n1 registered its growth at 98.6

The compound identified as CSc1nc(N)c2[nH]c(-c3cc4ccccc4[nH]c3=O)nc2n1 registered its growth at 57.2

The compound identified as Cc1ccc(C)c2c1SC1=NNC(Oc3ccc(Cl)cc3)=C(C#N)C(=N)N12 registered its growth at 87.9

The compound identified as COc1ccc2nc(-c3ccc(-c4noc(-c5ccc(Cl)cc5)n4)cc3)[nH]c2c1 registered its growth at 88.6

The compound identified as CS(=O)(=O)c1ccc(C(=O)N2N=C(c3ccccc3)CC2c2ccc3c(c2)OCO3)cc1 (stereo not given) registered its growth at 87.2

The compound identified as CCN(CC)c1ccc2c(cc1=O)[C@@H](NC(C)=O)CCc1cc(OC)c(OC)c(OC)c1-2 registered its growth at -38.8

The compound identified as COc1cc(Cl)cc(-c2nn(C(=O)NCCN3CCOCC3)cc2-c2ccncc2)c1 registered its growth at 18.3

The compound identified as O=C1Nc2ccc(Br)cc2/C1=N/c1nc(-c2ccccc2)cs1 registered its growth at 71.4

The compound identified as COc1ccc(/C=C/c2nc3ccccc3c(=O)n2-c2ccc(C#Cc3ccc(C(C)(C)C)cc3)cc2C)c(OC)c1 registered its growth at 70.2

The compound identified as Cc1c(C(=O)CCl)c(=O)n(-c2ccccc2)n1C registered its growth at -34.4
